Biological target: MSI1 full-length (mouse, UniProt Q61474 1-362)
Sequence (Q61474 whole entry): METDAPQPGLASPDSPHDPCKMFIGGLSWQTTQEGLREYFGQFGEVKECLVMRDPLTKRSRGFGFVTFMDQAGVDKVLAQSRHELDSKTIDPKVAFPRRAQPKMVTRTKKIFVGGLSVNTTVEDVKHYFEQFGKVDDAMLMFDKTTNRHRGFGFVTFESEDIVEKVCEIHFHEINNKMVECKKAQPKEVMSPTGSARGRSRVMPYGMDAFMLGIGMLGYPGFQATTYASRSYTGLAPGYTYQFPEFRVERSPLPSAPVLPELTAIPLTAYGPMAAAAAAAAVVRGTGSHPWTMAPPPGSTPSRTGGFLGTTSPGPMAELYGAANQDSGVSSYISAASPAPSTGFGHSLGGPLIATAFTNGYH
Assay: nsRBNS (natural sequence RNA bind-n-seq); RBNS binding buffer (assumed for nsRBNS): 25 mM Tris pH 7.5, 150 mM KCl, 3 mM MgCl2, 0.01% Triton X-100, 500 ug/ml BSA, 20 U/ml SUPERase-In, 4 C; UNK is unkempt and MSI1 is Musashi-1; names of the RNAs are library labels; protein concentration not given here; high values mean tight binding
Whole data set: some 5,800 sequences, median “enrichment r” near 0.54, cut for the highest 2% near 16. What follows is part of a selection rich in the highest values, with near analogues and random picks from the rest.
REPORTED_METRIC: binding signal (enrichment R)
Just the number please, in enrichment R, no unit attached.

// below: answered binders
ENSG00000070961:be:win_6001|3pUTR|ENSG00000070961|bound_else_gene|NA|bound_elsewhere_windowed (ssRNA) RNA: GGGAGUUCUACAGUCCGACGAUCCAAGACAUGCUUAGUGUGUAUUUCUCUCUUUGAGACACUGUAAUUUCUACCAGAAAUUUCCAGAGCAUUAUGUAGGUAGAAAAAAAUGCAAGCAAGCUGUUAAAGAUCUUGGAUCCCAUUCAACAGAGGAUUGAGCAUCA    0.464
chr8:74853834:74853946:+|3pUTR|ENSG00000137558|unk|total|mutant (ssRNA) RNA: GGGAGUUCUACAGUCCGACGAUCAAGUGCUUUUUUUUUUCUGAAUUAAUCCGGUAUUGGUAAAAUAUAUUUUUAAAUUCCGUCCGCUUUAUAAACACAAUCCGAAUUACAAUUAAUUAACAGAGGUAUAAUUGUCUCACUUUCCAACAGAGGAUUGAGCAUCA    1.6

Now for another entry.
Query: For chr3:62294137:62294238:+|3pUTR|ENSG00000144724|msi1|FALSE|unique (ssRNA) RNA: GGGAGUUCUACAGUCCGACGAUCUGAGACCCUUUAGUUAUUCUCCAUUAAUGCUUCUUAGUUUGUAAUACCAUACCUCACAGUAGGUAGAAGAAUGAAAACUUCUGCAGGUGUGUAAUUUUGAAACUAGUCCUCUAAAAAUUCCAACAGAGGAUUGAGCAUCA , what is its reported binding signal?
Reply: 8.1
